Tested on: DeltatarO mutant
Assay: S. aureus survival, RN4220 and DeltatarO strains – OD600, teichoic acid synthesis inhibitors, primary screen (AID 463173)
Conditions: S. aureus RN4220 wild type/DeltatarO growth, OD600, 18 h, screened at 18.75 µg/mL (by protocol)
Out of some 52,000 compounds screened, about 4,300 (8.3%) were called active. No stated cut-off is given here; in the data, active means survival mostly below about 52% (no sharp cut-off); inactive means mostly above about 56%. Many of the other results were omitted from the sample, so actives are more common in it than they were.
Valid outcomes are listed here; reply with one: Y = active, N = inactive

Query: recorded result category for `COc1ccccc1N1CCN(S(=O)(=O)c2ccc(-c3ccno3)cc2OC)CC1` in this test N

Query: recorded result category for `Cc1ccc(C)c(CN2CCCN(Cc3ccc(F)cc3)S2(=O)=O)c1` in this test Y

Query: recorded result category for `COc1cccc(N2CCN(S(=O)(=O)c3ccc(-c4ccno4)cc3OC)CC2)c1` in this test N

Query: recorded result category for `COc1cc(-c2ccno2)ccc1S(=O)(=O)N1CCN(c2ccccc2)CC1` in this test N

Query: recorded result category for `COC(=O)c1ccc(NC(=O)CN2CCCN(Cc3ccc(Cl)cc3)S2(=O)=O)cc1` in this test N

Query: recorded result category for `COc1ccc(NC(=O)CN2CCCN(Cc3ccc(Cl)cc3)S2(=O)=O)cc1Cl` in this test N

Query: recorded result category for `COc1ccc(N2CCN(S(=O)(=O)c3ccc(-c4ccno4)cc3OC)CC2)cc1` in this test Y

Query: recorded result category for `Cc1ccc(CN2CCCN(Cc3c(C)cc(C)cc3C)S2(=O)=O)cc1` in this test N

Query: recorded result category for `COC(=O)c1ccc(OC)c(CN2CCCN(Cc3ccc(C)cc3)S2(=O)=O)c1` in this test Y

Query: recorded result category for O=C1CC(c2ccccc2)Sc2nc3ccccc3n21 (stereo not given) in this test N

====

Test system: DeltatarO mutant
Assay: S. aureus survival, RN4220 and DeltatarO strains – OD600, teichoic acid synthesis inhibitors, primary screen (AID 463173)
Conditions: S. aureus RN4220 wild type/DeltatarO growth, OD600, 18 h, active compounds read low, screened at 18.75 µg/mL (by protocol)
The campaign covered roughly 52,000 compounds. About 4,300 (8.3%) were called active. Only a selection was taken, and actives are over-represented in it overall.
Consider the cut-off 70%. If the recorded survival is strictly smaller, the label is Satisfied; if not, the label is Not satisfied.

Take the molecule `Cc1ccc(NC(=O)c2cc(-c3ccc(Br)s3)nc3ccccc23)cc1F` and say whether its survival is less than 70%. Satisfied

Take the molecule CCOc1ccc(CNC(=O)C2CCCN(S(=O)(=O)c3ccc4c(c3)CCCC(=O)N4)C2)cc1 (stereo not given) and say whether its survival is less than 70%. Not satisfied

Take the molecule COc1ccc(-c2nsc(NC(=O)C(C)Oc3ccc(Cl)c(C)c3)n2)cc1 (stereo not given) and say whether its survival is less than 70%. Satisfied

Take the molecule `Cc1cc(=O)n2nc(N3CCC(C(=O)Nc4ccc(Br)cc4F)CC3)sc2n1` and say whether its survival is less than 70%. Not satisfied

====

Test system: DeltatarO mutant
Test: S. aureus survival, RN4220 and DeltatarO strains – OD600, teichoic acid synthesis inhibitors, primary screen (AID 463173)
Details: S. aureus RN4220 wild type/DeltatarO growth, OD600, 18 h, screened at 18.75 µg/mL (by protocol)
Out of some 52,000 compounds screened, about 4,300 (8.3%) were called active. Cut-off read from the data, not from the text of the source: active = survival mostly below about 52% (no sharp cut-off); inactive = mostly above about 56%. What follows is part of a selection rich in actives, with near analogues and random picks from the rest.
Valid outcomes are listed here; reply with one: active, inactive

Query: recorded result category for O=C1N(Cc2ccccc2)c2ccccc2C1(O)c1c[nH]c2ccccc12 (stereo not given) in this test inactive

Query: recorded result category for Cc1ccc2[nH]c(=O)c(CN(CC3COCCO3)C(=O)Nc3ccccc3F)cc2c1 (stereo not given) in this test inactive

Query: recorded result category for `CC(=O)Nc1cc(C(=O)NCc2ccc(C)cc2)ccc1Sc1ccc(C)cc1` in this test inactive

Query: recorded result category for `CCCCCCOc1ccc(/C=C/C(=O)Nc2sc3c(c2C(=O)OC)CCC3)cc1OC` in this test inactive

Query: recorded result category for Cc1ccc(C)c(CN2C(=O)C(O)(c3c[nH]c4ccccc34)c3ccccc32)c1 (stereo not given) in this test inactive

Query: recorded result category for `Fc1ccc(CNc2ccc(N3CCCC3)cc2)cc1` in this test inactive

Query: recorded result category for `CCOC(=O)C1CCN(c2nc3c(S(=O)(=O)c4ccc(Br)cc4)nnn3c3ccsc23)CC1` in this test inactive

Query: recorded result category for `COc1cccc(-n2c(-c3ccc(C)cc3)cc3c2CC(C)(C)CC3=O)c1` in this test active

Query: recorded result category for CCc1[nH]nc2c1C1(C(=O)Nc3ccc(Cl)cc31)C(C#N)=C(N)O2 (stereo not given) in this test inactive

Query: recorded result category for `O=S(=O)(c1ccc(Cl)cc1)c1nnn2c1nc(N1CCCCC1)c1sccc12` in this test inactive

====

Test system: DeltatarO mutant
Assay: S. aureus survival, RN4220 and DeltatarO strains – OD600, teichoic acid synthesis inhibitors, primary screen (AID 463173)
Conditions: S. aureus RN4220 wild type/DeltatarO growth, OD600, 18 h, screened at 18.75 µg/mL (by protocol)
The whole screen tested about 52,000 compounds, of which about 4,300 (8.3%) were called active. No stated cut-off is given here; in the data, active means survival mostly below about 52% (no sharp cut-off); inactive means mostly above about 56%. Shown is part of a subset that was picked to be rich in actives.
Valid outcomes are listed here; reply with one: active, inactive

Query: recorded result category for `Cc1nc(-c2ccc(S(=O)(=O)Nc3ccc(OC(F)(F)F)cc3)cc2)co1` in this test inactive

Query: recorded result category for `Cc1cccc2nc(-c3cccc(NS(=O)(=O)c4ccccc4)c3)cn12` in this test active

Query: recorded result category for `Cc1[nH]n(-c2ccccc2)c(=O)c1/C=N/NC(=O)c1ccccc1` in this test inactive

Query: recorded result category for `Cc1[nH]n(-c2ccc(Cl)cc2)c(=O)c1C(=O)c1ccccc1` in this test active

Query: recorded result category for `Cc1csc2nc(-c3cccc(NS(C)(=O)=O)c3)cn12` in this test inactive

Query: recorded result category for `CCOC(=O)c1csc2c1CCC/C2=N/OC(C)=O` in this test inactive

====

Tested on: DeltatarO mutant
Assay: S. aureus survival, RN4220 and DeltatarO strains – OD600, teichoic acid synthesis inhibitors, primary screen (AID 463173)
Details: S. aureus RN4220 wild type/DeltatarO growth, OD600, 18 h, active compounds read low, screened at 18.75 µg/mL (by protocol)
About 4,300 (8.3%) of roughly 52,000 compounds were called active. This is one part of a sample in which actives are shown more often than they occur.
Consider the cut-off 80%. If the recorded survival is strictly smaller, the label is 1; if not, the label is -1.

Take the molecule `CCn1c(=O)c2cc(C(=O)NCCc3cc(OC)ccc3OC)sc2c2ccccc21` and say whether its survival is less than 80%. 1

Take the molecule `COC(=O)c1ccccc1NC(=O)c1cnc2c(-c3cccc(C)c3)c(C)nn2c1C` and say whether its survival is less than 80%. -1

Take the molecule `CCc1ccc(CNC(=O)c2cc3c(=O)n(CC)c4ccccc4c3s2)cc1` and say whether its survival is less than 80%. 1

Take the molecule `COc1ccccc1NC(=O)CN1C(=O)c2cccc3cccc1c23` and say whether its survival is less than 80%. 1

Take the molecule CC1=C(C(=O)OC2CCCC2)C(c2c(Cl)cccc2Cl)CC(=O)N1 (stereo not given) and say whether its survival is less than 80%. 1

Take the molecule Cc1ccc(-c2nc3n(n2)C(=O)CC(c2ccc(C)cc2)S3)cc1 (stereo not given) and say whether its survival is less than 80%. -1

Take the molecule `O=C(c1ccccc1F)N1c2nc(-c3ccco3)nn2C2(CCCCC2)[C@@H]2CCCC[C@@H]21` and say whether its survival is less than 80%. 1

Take the molecule `CCCC(=O)Nc1cc(C)c(O)c(-c2nc3ncccc3o2)c1` and say whether its survival is less than 80%. -1

Take the molecule `Cc1ccc(NC(=O)CN(C)S(=O)(=O)c2cnc[nH]2)cc1` and say whether its survival is less than 80%. -1

Take the molecule CC1=C(C(=O)OC2CCCCCC2)C(c2c(Cl)cccc2Cl)CC(=O)N1 (stereo not given) and say whether its survival is less than 80%. 1

Take the molecule `COc1cc(NC(=O)CCc2c(C)nc3nc(-c4cc(OC)cc(OC)c4)nn3c2C)cc(OC)c1` and say whether its survival is less than 80%. -1

Take the molecule `N#C/C(=C/c1cccs1)C(N)=S` and say whether its survival is less than 80%. -1

Take the molecule `COc1ccc(CCNC(=S)N(Cc2ccco2)Cc2cc3cc(OC)c(OC)cc3[nH]c2=O)cc1OC` and say whether its survival is less than 80%. 1

Take the molecule `CCCN(C(=O)c1cn(CC(C)C)c(=O)c2cc(OC)c(OC)cc12)c1cccc(C)c1` and say whether its survival is less than 80%. -1

Take the molecule CCC1CCCCN1S(=O)(=O)c1ccc(C(=O)Nc2sc3c(c2C(N)=O)CCC3)cc1 (stereo not given) and say whether its survival is less than 80%. 1

Take the molecule `CCOC(=O)c1ccc(-n2c(-c3ccc(C)cc3)c(C)n3c4c(=O)n(C)c(=O)n(C)c4nc23)cc1` and say whether its survival is less than 80%. 1

Take the molecule `Cn1cnc(S(=O)(=O)N2CCC(C(=O)N3CCN(c4cccc(C(F)(F)F)c4)CC3)CC2)c1` and say whether its survival is less than 80%. -1

Take the molecule `Cc1cc(NC(=O)CSc2nc3c([nH]c4ccccc43)c(=O)n2-c2cccc(Cl)c2)no1` and say whether its survival is less than 80%. 1

Take the molecule `CCn1c(=O)c2cc(C(=O)NCCc3ccc(Cl)cc3)sc2c2ccccc21` and say whether its survival is less than 80%. 1

Take the molecule `COc1ccc(Nc2oc(-c3ccc(COc4cccc(C)c4)o3)nc2C#N)cc1` and say whether its survival is less than 80%. -1

Take the molecule `CCN(C(=O)c1cn(CC(C)C)c(=O)c2cc(OC)c(OC)cc12)c1cc(OC)ccc1OC` and say whether its survival is less than 80%. 1

Take the molecule `COC(=O)c1ccccc1NC(=O)Cn1cnc2sc(C)c(S(=O)(=O)N3CCC(C)CC3)c2c1=O` and say whether its survival is less than 80%. 1

Take the molecule `Cc1ccc(NC(=O)c2oc3ccc(S(=O)(=O)N(C)C4CCCCC4)cc3c2C)cc1Cl` and say whether its survival is less than 80%. -1

Take the molecule CC1=C(C(=O)OC2CCCCCC2)C(c2c(F)cccc2Cl)CC(=O)N1 (stereo not given) and say whether its survival is less than 80%. 1

Take the molecule `CCOc1ccc(CCNC(=O)c2cc3c(=O)n(CC)c4ccccc4c3s2)cc1OCC` and say whether its survival is less than 80%. 1

Take the molecule `CCc1ccccc1N(C)C(=O)c1cn(CC(C)C)c(=O)c2cc(OC)c(OC)cc12` and say whether its survival is less than 80%. 1

Take the molecule `CCN(C(=O)c1cn(CC)c(=O)c2cc(OC)c(OC)cc12)c1ccc(C)c(C)c1` and say whether its survival is less than 80%. -1

Take the molecule `O=C(CN1C(=O)c2cccc3cccc1c23)Nc1ccccc1Br` and say whether its survival is less than 80%. 1

Take the molecule `COCCNC(=O)CCC(=O)N1Cc2cccc(OC)c2Oc2ncccc21` and say whether its survival is less than 80%. -1

Take the molecule `CCn1c(=O)c2cc(C(=O)Nc3cc(OC)c(OC)c(OC)c3)sc2c2ccccc21` and say whether its survival is less than 80%. 1

Take the molecule `COc1ccc(Br)cc1CNC(=O)c1cc2c(=O)n(C)c3ccccc3c2s1` and say whether its survival is less than 80%. -1

Take the molecule `CNS(=O)(=O)c1cn(CC(=O)N2CCN(c3ccc(Cl)cc3)CC2)cc1S(=O)(=O)NC` and say whether its survival is less than 80%. -1

Take the molecule `C=CCc1cccc2cc(C(=O)Nc3ccc(F)cc3)c(=O)oc12` and say whether its survival is less than 80%. 1

Take the molecule `CCN(CCCNC(=O)c1ccc(Sc2ccc(Cl)cc2)c(NC(C)=O)c1)c1cccc(C)c1` and say whether its survival is less than 80%. -1

Take the molecule `CNS(=O)(=O)c1cn(CC(=O)N2CCN(c3ccc(OC)cc3)CC2)cc1S(=O)(=O)NC` and say whether its survival is less than 80%. 1

Take the molecule `CCCOc1ccc(C(=O)Nc2ccc3oc(-c4ccncc4)nc3c2)cc1` and say whether its survival is less than 80%. 1

Take the molecule `COc1ccc(CCNC(=O)c2cc3c(=O)n(C)c4ccccc4c3s2)cc1OC` and say whether its survival is less than 80%. 1

Take the molecule `COC(=O)CSc1ccc2nnc(CCNS(=O)(=O)c3ccccc3)n2n1` and say whether its survival is less than 80%. -1

Take the molecule `CS(=O)(=O)N1CCN(c2ncnc3c(-c4ccc(Cl)cc4)nsc23)CC1` and say whether its survival is less than 80%. -1
